Target: T1, recombinant cynomolgus monkey CD38 extracellular domain protein (ACROBiosystems) (cynomolgus monkey, UniProt Q5VAN0 44-301)
T1 construct: Bought extracellular domain protein; also called cyno CD38; recombinant cyno CD38
Assay: ELISA screen of hybridoma supernatants on recombinant CD38

# binder, binding result
records = [
    ("Clone E (antibody, V domains shown, Murine hybridoma antibody tested as supernatant; also called anti-CD38 murine hybridoma clone E) VH: QVQLQQSGAELVRPGTSVKMSCKAAGYTFTNHWIEWVKQRPGHGLEWIGDIFPGGGYTDYNEKFKGKATLTADTSSSTAYMQLSSLTSEDSAIYYCARGRDLAMDYWGQGTSVTVSS VL: DIQMNQSPSSLSASLGDTITITCHASQNINVWLGWYQQKPGNIPKLLIYKASNLHTGVPSRFSGSGSGTGFTLTISSLQPEDIATYYCQQGQSYPYTFGGGTKLEIK", "binds"),
    ("Clone B (antibody, V domains shown, Murine hybridoma antibody tested as supernatant; also called anti-CD38 murine hybridoma clone B) VH: QAYLQQSGAEVVRSGASVKMSCKAAGYTFTSYNMHWVKQTPGQGLEWIGYIYPGNGGTNYNQKFKGKATLTADTSSTTAYMQISSLTSEDSAVYFCARGASMITTGAWFAYWGQGTLVTVSA VL: NIVLTQSPASLAVSLGQRATISCRASESLDTYGNSFMYWYQQKPGQPPKLLIYLASSLESGVPARFSGSGSRTDFTLTIDPVEADDAATYYCHQNHEDPWTFGGGTKLEIK", "binds"),
    ("Clone I (antibody, V domains shown, Murine hybridoma antibody tested as supernatant; also called anti-CD38 murine hybridoma clone I) VH: QVPLQQSGPELVKPGASVKISCKASDSAFNNSWTIWVRQRPGKGLEWIGWIYPGDDDTKYNGKFMGKATLTADKSSGTAYMQLSSLTSEDSAVYFCARGRWGMDYWGQGTSVTVSS VL: DIVMTQSRKFMSTSVGDRVSISCKASQNVVTAVAWYQQKPGQSPKLLIYWASTRHTGVPDRFTGSGSGTDFTLTISNVQSEDLADYFCQQYSNYPFTFGSGTELEIK", "binds"),
]
